Listing: SI, selective index Ki(AChE)/Ki(BChE) of selected molecules
# ASSAYED_TARGET: UniProtKB P06276
# PROTOCOL_TEXT: Reversible inhibition of BChE, Ellman method, enzyme-inhibitor dissociation constants
# Assay type: biochemical
# CONDITION_SET: times higher preference for BChE over AChE
MEASURE_NAME: SI, selective index Ki(AChE)/Ki(BChE)

MOLECULE | MEASURE_NAME | VAL
C=CC1C[N+]2(Cc3ccc(C(F)(F)F)cc3)CCC1C[C@H]2[C@H](O)c1ccnc2ccccc12 (stereo partly shown) | SI, selective index Ki(AChE)/Ki(BChE) | 11
CCC1C[N+]2(Cc3cccc(F)c3)CCC1C[C@@H]2[C@@H](O)c1ccnc2ccccc12 (stereo partly shown) | SI, selective index Ki(AChE)/Ki(BChE) | 20
C=CC1C[N+]2(Cc3ccc(Br)cc3F)CCC1C[C@H]2[C@H](O)c1ccnc2ccccc12 (stereo partly shown) | SI, selective index Ki(AChE)/Ki(BChE) | 10
C=CC1C[N+]2(Cc3ccc(F)cc3F)CCC1C[C@H]2[C@H](O)c1ccnc2ccccc12 (stereo partly shown) | SI, selective index Ki(AChE)/Ki(BChE) | 1.1
CCC1C[N+]2(Cc3ccc(F)cc3)CCC1C[C@@H]2[C@@H](O)c1ccnc2ccccc12 (stereo partly shown) | SI, selective index Ki(AChE)/Ki(BChE) | 40
C=CC1C[N+]2(Cc3ccc(F)c(F)c3)CCC1C[C@H]2[C@H](O)c1ccnc2ccccc12 (stereo partly shown) | SI, selective index Ki(AChE)/Ki(BChE) | 10
C=CC1C[N+]2(Cc3ccc(F)cc3)CCC1C[C@@H]2[C@@H](O)c1ccnc2ccccc12 (stereo partly shown) | SI, selective index Ki(AChE)/Ki(BChE) | 1.5
C=CC1C[N+]2(Cc3cccc(OC(F)(F)F)c3)CCC1C[C@H]2[C@H](O)c1ccnc2ccccc12 (stereo partly shown) | SI, selective index Ki(AChE)/Ki(BChE) | 1.1
C=CC1C[N+]2(Cc3ccccc3F)CCC1C[C@H]2[C@H](O)c1ccnc2ccccc12 (stereo partly shown) | SI, selective index Ki(AChE)/Ki(BChE) | 40
C=CC1C[N+]2(Cc3cccc(F)c3F)CCC1C[C@H]2[C@H](O)c1ccnc2ccccc12 (stereo partly shown) | SI, selective index Ki(AChE)/Ki(BChE) | 25
C=CC1C[N+]2(Cc3ccc(C(F)(F)F)cc3)CCC1C[C@@H]2[C@@H](O)c1ccnc2ccccc12 (stereo partly shown) | SI, selective index Ki(AChE)/Ki(BChE) | 5.2
C=CC1C[N+]2(Cc3ccccc3)CCC1C[C@H]2[C@H](O)c1ccnc2ccccc12 (stereo partly shown) | SI, selective index Ki(AChE)/Ki(BChE) | 200
C=CC1C[N+]2(Cc3ccc(F)cc3)CCC1C[C@H]2[C@H](O)c1ccnc2ccccc12 (stereo partly shown) | SI, selective index Ki(AChE)/Ki(BChE) | 46
C=CC1C[N+]2(Cc3c(F)cccc3C(F)(F)F)CCC1C[C@@H]2[C@@H](O)c1ccnc2ccccc12 (stereo partly shown) | SI, selective index Ki(AChE)/Ki(BChE) | 7.9
CCC1C[N+]2(Cc3ccc(OC(F)(F)F)cc3)CCC1C[C@H]2[C@H](O)c1ccnc2ccccc12 (stereo partly shown) | SI, selective index Ki(AChE)/Ki(BChE) | 3
CCC1C[N+]2(Cc3cccc(C(F)(F)F)c3)CCC1C[C@@H]2[C@@H](O)c1ccnc2ccccc12 (stereo partly shown) | SI, selective index Ki(AChE)/Ki(BChE) | 34

====

# ASSAYED_TARGET: recombinant human AChE (Homo sapiens)
# Sequence (P22303 32-614): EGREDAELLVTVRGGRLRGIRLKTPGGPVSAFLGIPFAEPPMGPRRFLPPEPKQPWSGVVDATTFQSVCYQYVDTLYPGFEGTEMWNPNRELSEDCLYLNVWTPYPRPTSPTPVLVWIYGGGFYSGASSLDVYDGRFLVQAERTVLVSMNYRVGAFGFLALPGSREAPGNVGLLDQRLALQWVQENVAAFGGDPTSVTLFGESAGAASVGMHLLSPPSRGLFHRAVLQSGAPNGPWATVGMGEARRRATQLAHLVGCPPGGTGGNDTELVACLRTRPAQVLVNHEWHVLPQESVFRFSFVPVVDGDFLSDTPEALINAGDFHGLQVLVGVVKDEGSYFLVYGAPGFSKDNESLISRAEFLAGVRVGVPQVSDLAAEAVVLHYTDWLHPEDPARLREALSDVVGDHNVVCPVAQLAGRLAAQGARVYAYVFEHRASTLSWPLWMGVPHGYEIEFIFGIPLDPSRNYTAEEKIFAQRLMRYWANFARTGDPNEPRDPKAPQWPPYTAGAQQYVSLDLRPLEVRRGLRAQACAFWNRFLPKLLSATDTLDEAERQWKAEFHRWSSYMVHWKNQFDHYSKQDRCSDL
# PROTOCOL_TEXT: Reversible inhibition of AChE, Ellman method, enzyme-inhibitor dissociation constants
# CONDITION_SET: ± standard error; ATCh substrate, 25 °C, pH 7.4
Listing: Ki of selected molecules

MOLECULE | VALUE_UNITS | Ki
C=CC1C[N+]2(Cc3cccc(F)c3F)CCC1C[C@H]2[C@H](O)c1ccnc2ccccc12 (some centres unmarked) | µM | 19
C=CC1C[N+]2(Cc3c(F)cccc3F)CCC1C[C@H]2[C@H](O)c1ccnc2ccccc12 (some centres unmarked) | µM | 7.7
CCC1C[N+]2(Cc3ccc(OC(F)(F)F)cc3)CCC1C[C@H]2[C@H](O)c1ccnc2ccccc12 (some centres unmarked) | µM | 17
CCC1C[N+]2(Cc3cccc(F)c3)CCC1C[C@@H]2[C@@H](O)c1ccnc2ccccc12 (some centres unmarked) | µM | 20
CCC1C[N+]2(Cc3ccccc3)CCC1C[C@@H]2[C@@H](O)c1ccnc2ccccc12 (some centres unmarked) | µM | 21
C=CC1C[N+]2(Cc3ccc(C(F)(F)F)cc3)CCC1C[C@@H]2[C@@H](O)c1ccnc2ccccc12 (some centres unmarked) | µM | 31
C=CC1C[N+]2(Cc3ccccc3F)CCC1C[C@H]2[C@H](O)c1ccnc2ccccc12 (some centres unmarked) | µM | 33
C=CC1C[N+]2(Cc3cccc(C(F)(F)F)c3)CCC1C[C@H]2[C@H](O)c1ccnc2ccccc12 (some centres unmarked) | µM | 34

====

Listing: pKi of selected compounds
# ASSAYED_TARGET: purified human BChE (Homo sapiens)
# Sequence (P06276 29-602): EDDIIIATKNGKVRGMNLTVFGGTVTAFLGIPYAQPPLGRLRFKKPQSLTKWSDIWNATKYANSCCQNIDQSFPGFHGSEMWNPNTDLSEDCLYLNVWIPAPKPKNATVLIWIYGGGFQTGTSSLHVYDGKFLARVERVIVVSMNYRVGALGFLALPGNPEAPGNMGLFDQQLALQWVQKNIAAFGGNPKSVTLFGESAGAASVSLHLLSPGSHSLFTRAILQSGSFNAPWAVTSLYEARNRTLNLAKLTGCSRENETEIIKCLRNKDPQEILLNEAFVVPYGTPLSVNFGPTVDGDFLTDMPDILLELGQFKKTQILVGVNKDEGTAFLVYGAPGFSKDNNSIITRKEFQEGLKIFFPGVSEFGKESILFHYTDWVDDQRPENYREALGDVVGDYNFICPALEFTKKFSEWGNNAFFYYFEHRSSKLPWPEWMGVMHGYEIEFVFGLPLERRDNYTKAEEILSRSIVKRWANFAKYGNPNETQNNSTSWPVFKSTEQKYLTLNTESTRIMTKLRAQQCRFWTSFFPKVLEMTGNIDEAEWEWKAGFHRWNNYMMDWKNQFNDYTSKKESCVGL
# PROTOCOL_TEXT: Reversible inhibition of BChE, Ellman method, enzyme-inhibitor dissociation constants
# Type: biochemical
# CONDITION_SET: ± standard error; ATCh substrate, 25 °C, pH 7.4
pKi: −log10 of the molar value.

COMPOUND | pKi
C=CC1C[N+]2(Cc3c(F)cccc3Cl)CCC1C[C@H]2[C@H](O)c1ccnc2ccccc12 (stereo partly shown) | 5.30
CCC1C[N+]2(Cc3ccc(C(F)(F)F)cc3)CCC1C[C@@H]2[C@@H](O)c1ccnc2ccccc12 (stereo partly shown) | 5.80
C=CC1C[N+]2(Cc3cccc(OC(F)(F)F)c3)CCC1C[C@@H]2[C@@H](O)c1ccnc2ccccc12 (stereo partly shown) | 5.33
C=CC1C[N+]2(Cc3c(F)cccc3C(F)(F)F)CCC1C[C@@H]2[C@@H](O)c1ccnc2ccccc12 (stereo partly shown) | 5.11

====

Listing: pKi of selected molecules
# ASSAYED_TARGET: purified human BChE (Homo sapiens)
# PROTOCOL_TEXT: Reversible inhibition of BChE, Ellman method, enzyme-inhibitor dissociation constants
# Type: biochemical
# CONDITION_SET: ± standard error; ATCh substrate, 25 °C, pH 7.4
pKi: −log10 of the molar value.

MOLECULE | pKi
C=CC1C[N+]2(Cc3cccc(F)c3F)CCC1C[C@@H]2[C@@H](O)c1ccnc2ccccc12 (stereo partly drawn) | 5.02
C=CC1C[N+]2(Cc3cccc(C(F)(F)F)c3)CCC1C[C@H]2[C@H](O)c1ccnc2ccccc12 (stereo partly drawn) | 5.62
C=CC1C[N+]2(Cc3ccc(Br)cc3F)CCC1C[C@H]2[C@H](O)c1ccnc2ccccc12 (stereo partly drawn) | 6.17
